Entry source: patent US20210388087A1

Target: T1, Human CD3eg linker (human)
T1 construct: Single-chain construct; also called recombinant human CD3
T1 chain: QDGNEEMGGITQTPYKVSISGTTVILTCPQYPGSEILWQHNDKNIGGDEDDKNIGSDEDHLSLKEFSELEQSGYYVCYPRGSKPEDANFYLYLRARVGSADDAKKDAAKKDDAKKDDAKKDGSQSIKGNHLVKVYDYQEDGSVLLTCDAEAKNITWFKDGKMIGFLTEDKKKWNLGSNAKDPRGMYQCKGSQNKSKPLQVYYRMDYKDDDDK
Experiment: SPR; fold vs parent H183/L072
For each of the binders below, state its fold change of affinity.
All answers are understood in fold, so give the number only.

Challenge: Give the reported value of fold change of affinity for this record: H183/L072 VL S26I (antibody, name in Kabat numbering, V domains shown) VH: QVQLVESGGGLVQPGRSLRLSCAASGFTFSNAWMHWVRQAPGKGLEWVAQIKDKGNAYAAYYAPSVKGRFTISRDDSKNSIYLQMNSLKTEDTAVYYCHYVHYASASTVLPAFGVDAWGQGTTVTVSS VL: DIVMTQSPLSLPVTPGEPASISCQAIQELVHMNRNTYLHWYQQKPGQAPRLLIYKVSNRFPGVPDRFSGSGSGTDFTLKISRVEAEDVGVYYCAQGTSVPFTFGQGTKLEIK
Response given: 0.5

Challenge: Give the reported value of fold change of affinity for this record: H183/L072 VL S52R (antibody, name in Kabat numbering, V domains shown) VH: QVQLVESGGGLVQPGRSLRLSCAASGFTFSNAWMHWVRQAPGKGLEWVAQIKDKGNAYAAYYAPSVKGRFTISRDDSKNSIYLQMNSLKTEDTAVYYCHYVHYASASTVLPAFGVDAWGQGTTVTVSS VL: DIVMTQSPLSLPVTPGEPASISCQASQELVHMNRNTYLHWYQQKPGQAPRLLIYKVRNRFPGVPDRFSGSGSGTDFTLKISRVEAEDVGVYYCAQGTSVPFTFGQGTKLEIK
Response given: 1.8

Challenge: Give the reported value of fold change of affinity for this record: H183/L072 VL V27cS (antibody, name in Kabat numbering, V domains shown) VH: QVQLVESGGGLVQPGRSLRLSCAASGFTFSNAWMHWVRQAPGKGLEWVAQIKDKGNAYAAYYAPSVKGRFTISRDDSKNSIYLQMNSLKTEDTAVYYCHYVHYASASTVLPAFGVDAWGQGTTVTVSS VL: DIVMTQSPLSLPVTPGEPASISCQASQELSHMNRNTYLHWYQQKPGQAPRLLIYKVSNRFPGVPDRFSGSGSGTDFTLKISRVEAEDVGVYYCAQGTSVPFTFGQGTKLEIK
Response given: 0

Challenge: Give the reported value of fold change of affinity for this record: H183/L072 VL N30Y (antibody, name in Kabat numbering, V domains shown) VH: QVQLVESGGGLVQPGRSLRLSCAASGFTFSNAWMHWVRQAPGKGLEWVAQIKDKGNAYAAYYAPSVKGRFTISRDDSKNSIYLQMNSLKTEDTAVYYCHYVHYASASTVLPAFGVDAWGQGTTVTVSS VL: DIVMTQSPLSLPVTPGEPASISCQASQELVHMNRYTYLHWYQQKPGQAPRLLIYKVSNRFPGVPDRFSGSGSGTDFTLKISRVEAEDVGVYYCAQGTSVPFTFGQGTKLEIK
Response given: 0.8

Challenge: Give the reported value of fold change of affinity for this record: H183/L072 VL V51M (antibody, name in Kabat numbering, V domains shown) VH: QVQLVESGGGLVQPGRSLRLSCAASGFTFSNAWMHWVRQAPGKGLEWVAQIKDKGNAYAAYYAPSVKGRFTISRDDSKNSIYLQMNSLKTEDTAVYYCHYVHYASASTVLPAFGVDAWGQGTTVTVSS VL: DIVMTQSPLSLPVTPGEPASISCQASQELVHMNRNTYLHWYQQKPGQAPRLLIYKMSNRFPGVPDRFSGSGSGTDFTLKISRVEAEDVGVYYCAQGTSVPFTFGQGTKLEIK
Response given: 0.5
